The origin of these recorded values is the Kinase Knowledgebase extract (Sharma et al. 2016).

- Test Target: CDK2 (human)
- Assay Info: Cell-Based Assay
- Condition: rko
pIC50: −log10 of the molar value.
Measurement Label: pIC50

In [3]: df
Out[3]:
                                     smiles  numeric_result
0  NS(=O)(=O)c1ccc(NN=C2C(=O)Nc3ccc(-c4cnco4)cc32)cc1            6.46

====

- Test Target: CDK2 (human) (UniProt P24941)
- Assay Info: Enzyme Assay
Reported IC50 values for a set of compounds
Measurement Label: IC50 (nM)

In [3]: df
Out[3]:
                                      smiles                    test_target  unit_abbrev  bound_operator  numeric_result
 0  NS(=O)(=O)c1ccc(N/C=C2\C(=O)Nc3ncc(-c4ccco4)cc32)cc1  CDK2 (human) (UniProt P24941)           nM               =              55
 1  NS(=O)(=O)c1ccc(N/C=C2\C(=O)Nc3ncc(-c4ccsc4)cc32)cc1  CDK2 (human) (UniProt P24941)           nM               =             550
 2  NS(=O)(=O)c1ccc(N/C=C2\C(=O)Nc3cnccc32)cc1  CDK2 (human) (UniProt P24941)           nM               =              55
 3  CCOC(=O)c1cnc2c(c1)/C(=C/Nc1ccc3cn[nH]c3c1)C(=O)N2  CDK2 (human) (UniProt P24941)           nM               =              55
 4  NS(=O)(=O)c1ccc(N/C=C2\C(=O)Nc3nc(Cl)ccc32)cc1  CDK2 (human) (UniProt P24941)           nM               =             550
 5  O=C1Nc2ccc3ccncc3c2/C1=C/Nc1ccc(Cc2ccncc2)cc1  CDK2 (human) (UniProt P24941)           nM               =              30
 6  NS(=O)(=O)c1ccc(N/C=C2/C(=O)Nc3ccncc32)cc1.NS(=O)(=O)c1ccc(N/C=C2\C(=O)Nc3ccncc32)cc1  CDK2 (human) (UniProt P24941)           nM               =              55
 7  O=C1Nc2ncc(-c3ccco3)cc2/C1=C/Nc1ccc2cn[nH]c2c1  CDK2 (human) (UniProt P24941)           nM               =            5500
 8   O=C1Nc2ccc3ccncc3c2/C1=C/Nc1ccc(CCO)cc1  CDK2 (human) (UniProt P24941)           nM               =              75
 9  NS(=O)(=O)c1ccc(N/C=C2\C(=O)Nc3ncc(Br)cc32)cc1  CDK2 (human) (UniProt P24941)           nM               =              55
10  NS(=O)(=O)c1ccc(N/C=C2\C(=O)Nc3ncccc32)cc1  CDK2 (human) (UniProt P24941)           nM               =             550
11  O=C1Nc2ccc3ccncc3c2/C1=C/Nc1ccc(N2CCOCC2)cc1  CDK2 (human) (UniProt P24941)           nM               >             100
12  O=C1Nc2ncc(Br)cc2/C1=C/Nc1ccc2cn[nH]c2c1  CDK2 (human) (UniProt P24941)           nM               =              55
13  CCOC(=O)c1cnc2c(c1)/C(=C/Nc1ccc(S(N)(=O)=O)cc1)C(=O)N2  CDK2 (human) (UniProt P24941)           nM               =              55
14  NC(=O)c1ccc(N/C=C2\C(=O)Nc3ccc4ncsc4c32)cc1  CDK2 (human) (UniProt P24941)           nM               =              75
